system: OVCAR3/macrophage heterospheroids; assay: Response to carboplatin chemotherapy, MTS viability, heterospheroids; assay type: cell-based; conditions: OVCAR3/THP1 OvCa/MP hetero-spheroids, no LNP, FIG. 1B/6B
ENDPOINT LABEL: IC50

Reported IC50 of `N.N.O=C([O-])C1(C(=O)[O-])CCC1.[Pt+2]` : 536 µM

Origin of measurements: patent US20250361511A1
